experiment: Solution-gel (sol-gel) transition of each peptide; assay type: physicochemical
Where a SMILES comes first, the peptide text is derived from it.
measure: Sol-gel transition pH
The answer should be written as a number, with no unit following it.

>>> meas_value("CC(C)C[C@H](NC(=O)[C@H](CC(=O)O)NC(=O)[C@H](CC(C)C)NC(=O)[C@H](CCCCN)NC(=O)[C@H](CC(C)C)NC(=O)[C@H](CC(=O)O)NC(=O)[C@H](CC(C)C)NC(=O)[C@H](CCCCN)NC(=O)[C@H](CC(C)C)NC(=O)[C@H](CC(=O)O)NC(=O)[C@H](CC(C)C)NC(=O)[C@@H](N)CCCCN)C(N)=O [KLDLKLDLKLDL, KLD-12] (H-KLDLKLDLKLDL-NH2)")
5

# ---- query compound ----
Query string: Sol-gel transition pH lookup needed for CCCCCCCCCCCCCCCC(=O)NCC(=O)N[C@@H](Cc1cnc[nH]1)C(=O)O [PAL-GH, Palmityl dipeptide] (HELM PEPTIDE1{[CCCCCCCCCCCCCCCC(=O)[*:2]].G.H}$$$$V2.0) , thanks.
Result string: 5

Reference source for all entries: patent US20240050329A1
